For each of the compounds below, state its IC50.
target: Kynurenine 3-monooxygenase (Homo sapiens, UniProt O15229); experiment: Inhibition of full length human GST-tagged KMO expressed in baculovirus infected Sf9 insect cell membranes using kynurenine as substrate measured after 1 hr by RapidFire high-throughput mass spectrometric analysis
Sequence (O15229 whole entry): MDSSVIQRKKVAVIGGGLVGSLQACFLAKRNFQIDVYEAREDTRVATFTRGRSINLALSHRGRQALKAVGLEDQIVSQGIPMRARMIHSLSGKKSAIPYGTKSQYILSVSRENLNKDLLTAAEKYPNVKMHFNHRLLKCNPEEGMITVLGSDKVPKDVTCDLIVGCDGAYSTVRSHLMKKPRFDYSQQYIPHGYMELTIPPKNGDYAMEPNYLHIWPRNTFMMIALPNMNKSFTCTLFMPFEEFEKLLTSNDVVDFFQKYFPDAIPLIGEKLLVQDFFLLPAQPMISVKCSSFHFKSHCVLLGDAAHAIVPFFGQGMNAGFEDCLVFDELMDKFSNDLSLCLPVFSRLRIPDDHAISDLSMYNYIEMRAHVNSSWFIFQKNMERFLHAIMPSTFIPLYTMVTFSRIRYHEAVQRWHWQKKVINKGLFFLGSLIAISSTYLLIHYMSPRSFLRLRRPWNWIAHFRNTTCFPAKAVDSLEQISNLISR
Answers are plain numbers, in nM.

The examples below pair each entry with its known result.
Structure: NC(CO)(CO)CO.O=C(O)CCn1c(=O)oc2cc(OC3CC3)c(Cl)cc21
Assay system: Kynurenine 3-monooxygenase (Homo sapiens, UniProt O15229)
Units: nM
IC50: 3.16

Structure: NC(CO)(CO)CO.O=C(O)CCn1c(=O)oc2cc(OCc3ccccn3)c(Cl)cc21
Assay system: Kynurenine 3-monooxygenase (Homo sapiens, UniProt O15229)
Units: nM
IC50: 3.16

Structure: NC(CO)(CO)CO.O=C(O)CCn1c(=O)oc2cc(OCC3CC3)c(Cl)cc21
Assay system: Kynurenine 3-monooxygenase (Homo sapiens, UniProt O15229)
Units: nM
IC50: 10

// moving on: another record for IC50
Please report the recorded IC50 for `C[C@@H](Oc1cc2oc(=O)n(CCC(=O)O)c2cc1Cl)c1cccnn1` .
1.26
